Tested on: BT-549 breast
Test: NCI tumour cell line growth inhibition, 48 h; in the data active = GI50 below about 0.43 µM; inactive = the rest
# output must be one of T = active, F = inactive

Recorded results for 2 compounds are shown here.
>  <compound>
N#Cc1c(-c2ccccc2)cc(-c2ccccc2)n(CCCCC(=O)NO)c1=O

>  <system>
BT-549 breast

>  <cat>
F

$$$$
>  <compound>
COc1ccc(/C=C\c2cc(OC)c(OC)c(OC)c2)cc1OC(=O)c1cccc(Cn2cc(CCOC(=O)c3cccc(Cn4nnc5c4C(=O)c4ccccc4C5=O)c3)nn2)c1

>  <system>
BT-549 breast

>  <cat>
T

$$$$

Query: Record request — test call for C=C1C(=O)O[C@@H]2C[C@@H]1CC[C@@]1(C)O[C@@H]1CC[C@@]1(C)O[C@@H]1CC[C@@]2(C)O
Reply: F

---

System: NCI-H226 lung
Test: NCI tumour cell line growth inhibition, 48 h
Binary call on TGI: true from 10 µM upward, false beneath that.

Recorded results for 5 molecules are shown here.
>  <molecule>
Nc1ccccc1NC(=O)c1ccc(CN2CCC/C(=C\c3cccc(Cl)c3)C2=O)cc1

>  <cat>
false

$$$$
>  <molecule>
CC[O-].Cc1ccc2cccc([O-])c2n1.Cc1ccc2cccc([O-])c2n1.Cc1ccc2cccc([O-])c2n1.[Ti+4]

>  <cat>
true

$$$$
>  <molecule>
CC1OC(OC2C(O)COC(OC3C(C)OC(OC4C(OC(=O)[C@]56CCC(C)(C)C[C@@H]5C5=CCC7[C@@]8(C)C[C@H](O)[C@H](OC9OC(CO)C(O)C(OC%10OC(CO)C(O)C(O)C%10O)C9O)[C@@](C)(CO)[C@@H]8CC[C@@]7(C)[C@]5(C)CC6)OCC(O)C4O)C(O)C3OC3OCC(O)C(O)C3O)C2O)C(O)C(O)C1O (some centres not stated)

>  <cat>
true

$$$$
>  <molecule>
COc1cc2c3c(n(CCN(C)C)c(=O)c2cc1OC)-c1cc2c(cc1C3=O)OCO2

>  <cat>
true

$$$$
>  <molecule>
O=C(c1cccs1)c1c(C(F)(F)F)n([O-])c2ccc(F)cc2[n+]1=O

>  <cat>
false

$$$$

Moving on to the next molecule.
Query: Quick check, TGI >= 10 µM? Cc1c(CCCl)c(N=[N+]=[N-])n2c(nc3ccccc32)c1C#N
Reply: false

---

System: SN12C renal
Assay: NCI tumour cell line growth inhibition, 48 h; in the data active = GI50 below about 0.43 µM; inactive = the rest
# output must be one of true (1) (active), false (0) (inactive)

Recorded results for 8 compounds are shown here.
>  <compound>
N#Cc1c(NC(=O)CN2CCOCC2)sc2c1CCCC2

>  <cat>
false (0)

$$$$
>  <compound>
O=C1c2ccccc2-c2c1c1ccccc1c(=O)n2CCCN1CCN(CCCn2c3c(c4ccccc4c2=O)C(=O)c2ccccc2-3)CC1

>  <cat>
false (0)

$$$$
>  <compound>
CN1CCN(Cc2ccc(NC(=O)c3ccc(C#N)c(C#Cc4cnc(N)c5ncccc45)c3)cc2C(F)(F)F)CC1

>  <cat>
false (0)

$$$$
>  <compound>
CCOC(=O)C1=C(C)NC2SC(=O)/C(=C\c3ccccc3)N2C1c1ccccc1 (centres undefined)

>  <cat>
false (0)

$$$$
>  <compound>
COc1ccc(-c2cc(/C=C3\C(=O)Nc4ccc(OC)cc43)[nH]n2)cc1

>  <cat>
false (0)

$$$$
>  <compound>
Nc1ccccc1NC(=O)c1ccc(CN2CCC/C(=C\c3cccc(Cl)c3)C2=O)cc1

>  <cat>
false (0)

$$$$
>  <compound>
CC[O-].Cc1ccc2cccc([O-])c2n1.Cc1ccc2cccc([O-])c2n1.Cc1ccc2cccc([O-])c2n1.[Ti+4]

>  <cat>
false (0)

$$$$
>  <compound>
O=C1C(Cl)=C(Nc2cccc(O)c2)C(=O)N1c1ccc(Cl)c(Cl)c1

>  <cat>
false (0)

$$$$

Query: Record request — test call for COC(=O)[C@@]1(C)CC[C@]2(C)CC[C@]3(C)C4=CC=C5C(=CC(=O)C(O)=C5C)[C@]4(C)CC[C@@]3(C)[C@@H]2C1
Reply: true (1)

---

Test system: SF-268 CNS
Assay: NCI tumour cell line growth inhibition, 48 h
value-type: TGI

Query: Param readout= TGI; system= SF-268 CNS; entry= CNc1ccc(-c2cc(=O)oc3ccc(Cl)cc23)cc1 ; returns value.
Reply: > 100 µM

Query: Param readout= TGI; system= SF-268 CNS; entry= Cc1ccc(CS(=O)(=O)C/N=c2\sc3ccccc3nc2/C=C(\O)c2ccc(Cl)cc2)cc1 ; returns value.
Reply: > 10 µM

---

System: 786-0 renal
Assay: NCI tumour cell line growth inhibition, 48 h
value-type: GI50

>  <molecule>
CCC[CH2][Sn]([CH2]CCC)([O]C(=O)c1nccnc1N)[O]C(=O)c1nccnc1N

>  <test-result>
652 nM

$$$$
>  <molecule>
CC[CH2][Sn]([Cl])([Cl])[CH2]CC

>  <test-result>
10800 nM

$$$$
>  <molecule>
COc1ccc(/C=C/c2cc(N3CCOCC3)c3cc(F)c(F)cc3n2)cc1OC

>  <test-result>
600 nM

$$$$
>  <molecule>
CC1=C([Se]CC(OC(=O)[C@@H](CO)NC(=O)OC(C)(C)C)C(=O)NC(C)(C)C)C(=O)c2ccccc2C1=O (stereo partly drawn)

>  <test-result>
1950 nM

$$$$

Query: Given the entry CC[C@@H](C(=O)[C@@H](C)[C@@H](O)[C@H](C)[C@@H]1O[C@@H]([C@@H](CC)C(=O)O)CC[C@@H]1C)[C@H]1OC2(C=C[C@@H](O)[C@]3(CC[C@@](C)([C@H]4CC[C@](O)(CC)[C@H](C)O4)O3)O2)[C@H](C)C[C@@H]1C (stereo partly drawn) , report its measured GI50.
Reply: 589 nM

Query: Given the entry COc1ccc(Cc2cnc(NC(=O)c3sc4ccccc4c3Cl)s2)cc1 , report its measured GI50.
Reply: 652 nM

Query: Given the entry CN(C)CCCNc1nccc(-c2c(-c3ccc(F)cc3)nn3cc(C(F)(F)F)ccc23)n1 , report its measured GI50.
Reply: 7690 nM

Query: Given the entry Cc1nc(/N=C(\N)NC(=O)Nc2ccccc2Cl)sc1C , report its measured GI50.
Reply: 639 nM

---

Tested on: LOX IMVI melanoma
Experiment: NCI tumour cell line growth inhibition, 48 h
value-type: GI50

>  <item-smiles>
O=C1/C(=C\c2coc3ccccc3c2=O)c2ccccc2N1c1c(Cl)cccc1Cl

>  <test-result>
1520 nM

$$$$

Query: Given the entry CCCCN(CCCC)CCCN=c1nc2c(c(N)n1-c1ccccc1)c(=S)n(-c1ccccc1)c(=S)n2-c1ccccc1 , report its measured GI50.
Reply: 303 nM

Query: Given the entry COc1cc([C@@H]2c3cc4c(cc3[C@@H](O[C@@H]3O[C@@H]5CO[C@@H](c6cccs6)O[C@H]5[C@H](O)[C@H]3O)[C@H]3COC(=O)[C@H]23)OCO4)cc(OC)c1O , report its measured GI50.
Reply: 96.9 nM

Query: Given the entry COc1cc2c3c(n(C)c(=O)c2cc1OC)-c1cc2c(cc1/C3=C\CCCBr)OCO2 , report its measured GI50.
Reply: 42000 nM

Query: Given the entry CC[CH2][Sn]([Cl])([Cl])[CH2]CC , report its measured GI50.
Reply: 2800 nM

---

System: RPMI-8226 leukemia
Assay: NCI tumour cell line growth inhibition, 48 h
value-type: TGI

Worked cases, answers included:
>  <compound>
COc1cccc(NC(=O)CC(=O)N2NC(C)C(N=Nc3cccc(C(=O)O)c3)C2=O)c1 (centres undefined)

>  <value-type>
TGI

>  <test-result>
> 100 µM

$$$$
>  <compound>
CC(=O)OCC12C(OC(C)=O)C[C@@H](C)C3(CC(c4ccoc4)OC3=O)C1CCC(O)C21CO1 (some centres undefined)

>  <value-type>
TGI

>  <test-result>
> 100 µM

$$$$
>  <compound>
Cc1ccc2[nH]c3[nH]c(=O)[nH]c(=O)c3c2c1

>  <value-type>
TGI

>  <test-result>
> 100 µM

$$$$

Let us examine a further case.
Query: Given the entry CC1=C(c2cc(C(=O)Nc3ccc(Cl)c(Cl)c3)nc(N)n2)Sc2ccccc2N1 , report its measured TGI.
Reply: > 100 µM

---

System: NCI-H522 lung
Assay: NCI tumour cell line growth inhibition, 48 h
Below, each entry is listed with its recorded log10(TGI).
A value of 2 here means TGI of 100 in µM, since values are log10.

>  <molecule>
C#CCNC(=O)CC[C@]1(C)[C@H]2CC[C@@H]3[C@@H]([C@@](C)(O)CCC=C(C)C)CC[C@@]3(C)[C@]2(C)CC[C@H]1C(=C)C

>  <log10(TGI)>
1.55

$$$$
>  <molecule>
CC(=O)[O-].CC(=O)[O-].[NH2-].[Pt+2].c1ccncc1

>  <log10(TGI)>
1.65

$$$$
>  <molecule>
CC(=O)OCC1OC(OC2=C(CC=C(Cl)Cl)C(=O)c3ccccc3C2=O)C(OC(C)=O)C(OC(C)=O)C1OC(C)=O (centres undefined)

>  <log10(TGI)>
0.72

$$$$
>  <molecule>
CC1(C)CC2C=C(C=O)C3(C=O)CC3(C)C2C1 (centres undefined)

>  <log10(TGI)>
0.40

$$$$

Let us examine a further case.
Query: Given the entry CCN(CC)C(=S)SC1CCOP(=O)(N(CCCl)CCCl)N1C (centres undefined) , report its measured log10(TGI).
Reply: 0.34
